Origin of values: PubChem BioAssay

- assay summary: anti-His antibody binders, primary screen, artefact control for SMM control protein annotation, biochemical, small-molecule microarray, 635 nm fluorescence (AID 1128);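 further: score merges feature fluorescence with signal-to-noise for each printed compound spot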
- details: anti-His Alexa647 antibody binding, higher = more signal
recorded endpoint: composite z-score
Hey, just send me the number, nothing else.

Can you look up the measured composite z-score of C=CC[C@@H]1C=C[C@H](ON=Cc2ccc(C(=O)N3[C@H](c4ccc(C)cc4)[C@@H](C)CC[C@H]3C(=O)OC)cc2)[C@@H](CO)O1 for me?
-0.672

Can you look up the measured composite z-score of CCOC(=O)CCN1C(=O)[C@H]2[C@H]3[C@H](O)[C@H](O)CC(=NOC[C@@H](O)COCc4ccco4)[C@H]3CC[C@H]2C1=O for me?
0.659

Can you look up the measured composite z-score of CN1C(=O)C2C=CC(C(O)c3ccc(Br)cc3)N(N(c3ccccc3)c3ccccc3)C2C1=O (stereo not given) for me?
0.373

Can you look up the measured composite z-score of CC1CC/C=C\[C@H]2OC34C=CCN(C(C)C)C(=O)[C@H]3N(CCCO)C(=O)[C@@H]4C2C(=O)O1 (stereo not given in full) for me?
1.41

Can you look up the measured composite z-score of CC(CCN1CCc2nc(-c3ccccc3)c(-c3ccccc3)cc2C1)=NOC(C)CN1CCCCc2nc(C)c(C)cc21 (stereo not given) for me?
0.605

Can you look up the measured composite z-score of CO[C@@H]1COC(=O)CC=C[C@@H](C)COC(=O)[C@H](COCc2ccccc2)NC(=O)CC=C[C@H]1C for me?
-0.105

Can you look up the measured composite z-score of Cc1cc2c(nc1C)CCCN2CC(C)ON=C1[C@H]2CCn3c(=O)n(-c4ccccc4)c(=O)n3[C@H]2[C@H](O)[C@@H]2O[C@H]12 (stereo not given in full) for me?
-0.674

Can you look up the measured composite z-score of CN1C(=O)C2C=CC(C(O)c3ccc(I)cc3)N(NC(=O)OC(C)(C)C)C2C1=O (stereo not given) for me?
0.131

Can you look up the measured composite z-score of CC(C)=CCCC(C)=CCON=C1[C@H]2CCn3c(=O)n(C)c(=O)n3[C@H]2[C@H](O)[C@@H]2O[C@H]12 for me?
0.957

Can you look up the measured composite z-score of Cc1cc2c(c(=O)o1)[C@H](O)[C@H]1O[C@H]1C2=O for me?
-0.633

Can you look up the measured composite z-score of O=C1[C@H]2[C@H]3[C@H](O)[C@H](O)CC(=NO[C@@H]4O[C@H](CO)[C@@H](O)[C@H](O)[C@H]4O)[C@H]3CC[C@H]2C(=O)N1Cc1ccccc1 for me?
0.0948

Can you look up the measured composite z-score of COC(=O)[C@H](C)NC(=O)CCC1CC(OC(=O)NCc2cccc3ccccc23)CC2(CCCC(COC(=O)NCC3CCCCC3)O2)O1 (stereo not given in full) for me?
0.876

Can you look up the measured composite z-score of COCC(=C=CC[C@@H](O)c1ccccc1OCCO)CCO for me?
0.0272

Can you look up the measured composite z-score of C=CCOC(=O)[C@H]1[C@@H]2C(=O)O[C@@H](c3ccccc3)[C@@H](c3ccccc3)N2[C@@H](c2ccc(OCCOC(=O)[C@H]3C[C@H]4C(=O)N[C@@H](Cc5ccccc5)C(=O)N4[C@H]3c3ccc(O)cc3)cc2)[C@]12C(=O)Nc1ccccc12 for me?
2.22

Can you look up the measured composite z-score of C=C(/C(=C/C[C@@H](OC(=O)c1ccncc1)c1ccc(OCCO)cc1)c1cnc2ccccc2c1)C(C)C for me?
1.03

###

- assay summary: MM1S cell viability effects, profiling panel, calcein-AM fluorescence, 48 h, basal (AID 1165);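 further: viability of MM1S multiple myeloma cells under basal unstimulated conditions; test concentration not given here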
- details: higher = more signal
recorded endpoint: z-score
Hey, just send me the number, nothing else.

Can you look up the measured z-score of COCCOC(=O)N1C(=O)[C@@]2(c3cc(C#CC4(O)CCCCCC4)ccc31)[C@H](c1ccc(OCCO)cc1)N1[C@H](c3ccccc3)[C@H](c3ccccc3)OC(=O)[C@H]1[C@@H]2C(=O)NC[C@H](O)c1ccccc1 for me?
-1.25

Can you look up the measured z-score of CCN1C(=O)[C@H]2[C@H]3[C@H](O)[C@H](O)CC(=NOCc4ccccc4)[C@H]3CC[C@H]2C1=O for me?
-0.463

Can you look up the measured z-score of C=CC[C@@H]1C=C[C@H](ON=C[C@@H](OC)[C@H](C)C=CCC(=O)OC)[C@@H](CO)O1 for me?
0.486

Can you look up the measured z-score of CO[C@@H]1COC(=O)CC=C[C@@H](C)[C@@H]2C=C[C@@H](O)[C@@H](COC(=O)CC=C[C@H]1C)O2 for me?
0.349

Can you look up the measured z-score of COC(=O)[C@@H]1CC[C@H](C)[C@@H](c2ccc(C)cc2)N1C(=O)c1ccc(C=NOC(C)CN2CCCCc3nc(C)c(C)cc32)cc1 (some centres not stated) for me?
-2.73

Can you look up the measured z-score of C#CCCCON=C1C[C@@H](O)[C@@H](O)[C@@H]2[C@@H]3C(=O)N(CCC(=O)OCC)C(=O)[C@@H]3CC[C@@H]12 for me?
0.17

Can you look up the measured z-score of CN1C(=O)[C@@]2(CCC(=O)OC(C)(C)C)N=C(c3ccc(OCCCO)cc3)O[C@H]2c2ccccc21 for me?
-1.85

###

- tested on: E3 ubiquitin-protein ligase XIAP (Homo sapiens) (UniProt P98170)
- Sequence (P98170 whole entry, looked up): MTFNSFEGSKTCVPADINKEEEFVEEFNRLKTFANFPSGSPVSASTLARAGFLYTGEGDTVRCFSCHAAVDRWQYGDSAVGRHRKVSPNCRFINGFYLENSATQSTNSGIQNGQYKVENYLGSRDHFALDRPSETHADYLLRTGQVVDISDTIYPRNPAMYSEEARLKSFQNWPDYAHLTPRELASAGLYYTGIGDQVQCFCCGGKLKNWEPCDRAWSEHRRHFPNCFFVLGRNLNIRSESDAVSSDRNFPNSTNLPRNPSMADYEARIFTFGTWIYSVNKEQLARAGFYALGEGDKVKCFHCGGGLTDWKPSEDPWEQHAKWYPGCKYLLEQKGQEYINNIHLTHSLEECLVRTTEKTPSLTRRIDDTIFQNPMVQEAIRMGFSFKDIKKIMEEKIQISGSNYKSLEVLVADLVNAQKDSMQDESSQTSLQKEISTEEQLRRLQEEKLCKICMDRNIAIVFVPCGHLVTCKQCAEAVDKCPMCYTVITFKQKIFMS
- assay summary: XIAP binders, primary screen, biophysical, small-molecule microarray, fluorescence 635 nm (AID 1181);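 further: score merges 667 nm emission and signal to noise over triplicate slides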
- details: small-molecule microarray binding, higher = more signal
Would you mind telling me the reported composite z-score of each entry?
Hey, just send me the number, nothing else.

Can you look up the measured composite z-score of O=C1C[C@@H](O)[C@@H](O)[C@@H]2[C@@H]3C(=O)N(c4cccc(Oc5ccccc5)c4)C(=O)[C@@H]3CC[C@@H]12 for me?
-0.102

Can you look up the measured composite z-score of COC(=O)[C@H](C)NC(=O)CCC1CC(OC(=O)NCCc2ccc(F)cc2)CC2(CCCC(COC(=O)NCCc3ccc(Cl)cc3)O2)O1 (some centres not stated) for me?
-0.0918

Can you look up the measured composite z-score of C[C@H](c1ccccc1)N1C(=O)[C@H]2[C@@H]3C(=CC[C@H]2C1=O)C(=O)[C@H]1O[C@H]1[C@H]3O for me?
0.288

Can you look up the measured composite z-score of COCC(=C=CC[C@@H](O)c1ccccc1OCCO)CCO for me?
0.326

Can you look up the measured composite z-score of CN1C(=O)C2C=CC(C(O)C(c3ccccc3)c3ccccc3)N(NC(=O)OC(C)(C)C)C2C1=O (configuration not stated) for me?
0.497

Can you look up the measured composite z-score of CCOC(=O)CCN1C(=O)[C@H]2[C@H]3[C@H](O)[C@H](O)CC(=NOC[C@@H](O)COCc4ccco4)[C@@H]3CC[C@H]2C1=O for me?
-0.124

Can you look up the measured composite z-score of C[C@@H]1C=CCC(=O)OC[C@H](C)C(=O)N[C@@H](C)C(=O)OC1 for me?
-0.113

Can you look up the measured composite z-score of CCCNC(=O)[C@@H]1c2ccccc2C(=O)N(c2ccc(C)cn2)[C@H]1c1ccc(CO)cc1 for me?
-0.165

Can you look up the measured composite z-score of CC1(C)OCC(C(O)C2=CCCCC2=O)CO1 (configuration not stated) for me?
-0.294

Can you look up the measured composite z-score of C[C@H]1Cc2c(-c3ccccc3)nc3c(c2CO1)CN(CCOc1ccccc1)CC3 for me?
-0.0599

Can you look up the measured composite z-score of COc1ccc(O[C@H]2C=C[C@@H](c3ccccc3)O[C@@H]2COC(=O)CCC(C)=NOC(C)CN2CCCCc3nc(C)c(C)cc32)cc1 (some centres not stated) for me?
0.533

Can you look up the measured composite z-score of COc1ccc([Si](C)(C)[C@H]2[C@H](CC(=O)N3CCC[C@H]3CO)O[C@@]3(C(=O)N(Cc4cccc(N5C(=O)COc6ccccc65)c4)c4ccccc43)[C@@H]2C)cc1 for me?
-0.0795

Can you look up the measured composite z-score of CO[C@H]1COC(=O)[C@@H]2CCCN2C(=O)CC=C[C@@H](C)[C@H](OC)COC(=O)CC=C[C@@H]1C for me?
-0.137

Can you look up the measured composite z-score of COc1ccc(O[C@@H]2[C@H](O)CO[C@H]2C=CC#Cc2ccccc2)cc1 for me?
0.116

Can you look up the measured composite z-score of C=CC[C@@H]1C=C[C@H](ON=C(C)CCN2CCc3nc(CC)c(CC)cc3C2)[C@@H](CO)O1 for me?
0.0178

Can you look up the measured composite z-score of C[C@@H]1CC[C@H]2C(=O)O[C@H](COc3ccc(C(C)(C)C)cc3)CN2[C@H]1c1ccc(Br)cc1 for me?
-0.0118

Can you look up the measured composite z-score of CCOC(=O)CCN1C(=O)[C@H]2[C@H]3[C@H](O)[C@H](O)CC(=O)[C@H]3CC[C@H]2C1=O for me?
0.065
